Test system: NF-κB
assayMethodText: NF-κB-controlled firefly luciferase in A549/NF-κBLuc cells
Type: cell-based, human
recordedConditions: IL-1β (1 ng/ml) for 4 hours, read-out: IL-1β stimulation IC50 (NF-κB inhibiting activity)
metric: IC50
# answer = value followed by unit

Sample Cc1csc2ncnc(NC3Cc4ccc(C(=O)N5CCOCC5)cc4C3)c12 (stereo not shown) ; IC50 observed: 51 nM

###

Tested on: NO production
assayMethodText: NO production of LPS-stimulated RAW264.7 cells (Griess' method)
Type: cell-based, mouse
recordedConditions: Mus musculus, LPS (10 μg/ml), 24 hours after the stimulation
Kindly supply the reported pIC50 values for the records listed here.
Entry type: numeric. Quantity: pIC50, the -log10 of concentration in molar units.

Sample Cc1csc2ncnc(NC3Cc4ccccc4C3)c12 [Example 1] ; pIC50 observed: 6.15

Sample Cc1csc2ncnc(NC3Cc4ccc(C(=O)NCc5ccccc5)cc4C3)c12 (stereo not drawn) [Example 31] ; pIC50 observed: 7.62

Sample CC(C)c1csc2ncnc(NC3Cc4ccccc4C3)c12 [Example 22] ; pIC50 observed: 7.19

###

System: human inducible NO synthase (hiNOS) gene
assayMethodText: Expression of the human inducible NO synthase (hiNOS) gene, firefly luciferase reporter in A5 cells
Assay type: cell-based
recordedConditions: Homo sapiens, IL-1β (1 ng/ml)+TNF-α (500 ng/ml), firefly luciferase activity 24 hours later, read-out: IL-1β + TNF-α stimulation IC50 (inhibitory effect on the expression of the hiNOS gene)
Could you please mark label 1 for values of IC50 below 60 nM and label 0 for values at or above it?

I wonder whether Cc1csc2ncnc(NC3Cc4ccc(C(=O)NCc5ccccc5)cc4C3)c12 (centres unmarked) [Example 31] has IC50 below 60 nM. Can you tell? label 1

I wonder whether CC(C)c1csc2ncnc(NC3Cc4ccccc4C3)c12 [Example 22] has IC50 below 60 nM. Can you tell? label 0

I wonder whether c1ccc2c(c1)CC(Nc1ncnc3occc13)C2 [Example 6, 4-(2-indanylamino)furo[2,3-d]pyrimidine] has IC50 below 60 nM. Can you tell? label 0

I wonder whether Cc1csc2ncnc(NC3Cc4ccc(Oc5ccccc5)cc4C3)c12 (centres unmarked) [Example 25] has IC50 below 60 nM. Can you tell? label 0

I wonder whether Cc1csc2ncnc(NC3Cc4ccccc4C3)c12 [Example 1] has IC50 below 60 nM. Can you tell? label 0
